# targetEntity: CAI (Homo sapiens);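 also: human CAI expressed in E. coli, ANS fluorescence thermal shift with Kd fitted from melting temperature versus ligand concentration, intrinsic values correct for deprotonated sulfonamide and Zn-water CA fractions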
# Construct: made in house; host or cells: E. coli
# Sequence (P00915 whole entry): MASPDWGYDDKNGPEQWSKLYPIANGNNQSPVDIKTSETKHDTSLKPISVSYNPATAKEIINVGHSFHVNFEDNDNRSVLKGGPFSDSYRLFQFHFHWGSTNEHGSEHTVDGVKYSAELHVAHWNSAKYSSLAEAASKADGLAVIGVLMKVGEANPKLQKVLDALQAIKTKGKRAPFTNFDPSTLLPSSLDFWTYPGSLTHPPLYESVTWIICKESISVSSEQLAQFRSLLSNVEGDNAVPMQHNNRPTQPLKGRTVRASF
# protocolSummary: biochemical
# Format: binding
# experimentalParameters: FTSA, pH 7.0, 37 °C; read-out: Observed Dissociation Constant (Kd_obs), CAI
I'd appreciate it if you could supply Kd values for the items below.
One number for each entry, in µM.

Past entries and their recorded results:
compound	targetEntity	Kd [µM]
NS(=O)(=O)c1ccc(NCC(CC(=O)NN=Cc2ccccc2[N+](=O)[O-])C(=O)NN=Cc2ccccc2[N+](=O)[O-])c(Cl)c1 (stereo not drawn) [Compound 15b]	CAI (Homo sapiens)	2.5
NS(=O)(=O)c1ccc(NCC(CC(=O)NN=Cc2ccc(F)cc2)C(=O)NN=Cc2ccc(F)cc2)c(Cl)c1 (stereo not drawn) [Compound 13b]	CAI (Homo sapiens)	2.6

# input for lookup
// Input: NS(=O)(=O)c1ccc(NCC(CC(=O)NN=Cc2ccc([N+](=O)[O-])cc2)C(=O)NN=Cc2ccc([N+](=O)[O-])cc2)c(Cl)c1 (stereo not drawn) [Compound 17b] . Output its Kd only.
2.6
